B1: MCOLN1 (parent)
chain: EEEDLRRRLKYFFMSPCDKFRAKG

variants of: B1; assay: protein stability index of a GFP-peptide fusion (GPS, HEK-293T) (PSI 1-6); higher = more stable; settings: c terminus: a fixed tail appended;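 further: lentivirally expressed fusions sorted by FACS into six bins by GFP to DsRed ratio, PSI derived from sequencing read proportions per bin multiplied by bin number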
Each record gets a class by protein stability index: lower level: < 2; middle level: ≥ 2 and < 3; upper level: ≥ 3

{"columns": ["record_sequence", "assigned_category"],
 "data": [
  ["EEEDLRRRLKYFFMSPCDKFRAKY [G24Y]", "lower level"]
]}

Sort EEEDLRRRLKYFFMSPLDKFRAKG [C17L] into one of the categories.
middle level

Sort EEEDLRRRAKYFFMSPCDKFRAKG [L9A] into one of the categories.
upper level

Sort EEEDLRRHLKYFFMSPCDKFRAKG [R8H] into one of the categories.
middle level
